biological target: BCRP (Homo sapiens (Human)); test: BCRP transfected MDCKII canine Mdr1 knockout permeability/efflux, Assay 9; conditions: dog
Sequence (Q9UNQ0 whole entry): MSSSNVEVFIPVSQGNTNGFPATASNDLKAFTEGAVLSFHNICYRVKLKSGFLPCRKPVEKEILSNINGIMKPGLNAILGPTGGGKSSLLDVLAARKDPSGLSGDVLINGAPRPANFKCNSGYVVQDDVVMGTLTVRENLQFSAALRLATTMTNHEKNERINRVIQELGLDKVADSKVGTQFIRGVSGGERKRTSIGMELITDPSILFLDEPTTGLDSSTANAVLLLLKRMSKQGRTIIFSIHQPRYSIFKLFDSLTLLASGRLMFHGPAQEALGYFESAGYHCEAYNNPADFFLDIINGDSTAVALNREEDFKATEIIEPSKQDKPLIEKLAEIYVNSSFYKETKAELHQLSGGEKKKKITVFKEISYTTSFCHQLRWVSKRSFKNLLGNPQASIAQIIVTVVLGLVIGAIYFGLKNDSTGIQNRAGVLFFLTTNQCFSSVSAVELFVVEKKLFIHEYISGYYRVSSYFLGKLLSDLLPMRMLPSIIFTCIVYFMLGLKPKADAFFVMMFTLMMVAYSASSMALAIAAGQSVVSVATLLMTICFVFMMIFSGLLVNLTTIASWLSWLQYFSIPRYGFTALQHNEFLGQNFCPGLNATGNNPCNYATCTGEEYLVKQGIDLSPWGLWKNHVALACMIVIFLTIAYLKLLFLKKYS
I'd be grateful if you could share measured efflux ratio at 2 h, 1 μM for these entries.
One number for each entry.

{"compound": "Cn1cnc2cc(Oc3ccc(Nc4ncnc5cnc(N6CCN[C@@H](C(F)(F)F)C6)nc45)cc3Cl)ccc21.O=C(O)C(F)(F)F", "efflux ratio at 2 h, 1 μM": 5.1}
{"compound": "Cc1cc(Nc2ncnc3cnc(N4CC5(C4)CC(C)(O)C5)nc23)ccc1Oc1ccc2c(c1)ncn2C", "efflux ratio at 2 h, 1 μM": 26}

Now take the following compound into account.
Input: Assign efflux ratio at 2 h, 1 μM to the following record: Cc1cc(Nc2ncnc3cnc(N4CC[C@@]45CCOC5)nc23)ccc1Oc1ccc2c(c1)ncn2C (single isomer, unassigned) [Example 93a]
Output: 1.9

###

Consider the following compounds; for each one, report its IC50.
target: ErbB2 with Exon 20 YVMA insertion (HER2-YVMA) (Homo sapiens (Human), UniProt P04626, INS775YVMA); test: Cellular phosphorylation assay, constitutive ErbB2 phosphorylation (Y1196) in engineered NIH 3T3 cells, Assay 4
Sequence (P04626 other isoform, or with tags, fused parts or gaps ins YVMA behind 775): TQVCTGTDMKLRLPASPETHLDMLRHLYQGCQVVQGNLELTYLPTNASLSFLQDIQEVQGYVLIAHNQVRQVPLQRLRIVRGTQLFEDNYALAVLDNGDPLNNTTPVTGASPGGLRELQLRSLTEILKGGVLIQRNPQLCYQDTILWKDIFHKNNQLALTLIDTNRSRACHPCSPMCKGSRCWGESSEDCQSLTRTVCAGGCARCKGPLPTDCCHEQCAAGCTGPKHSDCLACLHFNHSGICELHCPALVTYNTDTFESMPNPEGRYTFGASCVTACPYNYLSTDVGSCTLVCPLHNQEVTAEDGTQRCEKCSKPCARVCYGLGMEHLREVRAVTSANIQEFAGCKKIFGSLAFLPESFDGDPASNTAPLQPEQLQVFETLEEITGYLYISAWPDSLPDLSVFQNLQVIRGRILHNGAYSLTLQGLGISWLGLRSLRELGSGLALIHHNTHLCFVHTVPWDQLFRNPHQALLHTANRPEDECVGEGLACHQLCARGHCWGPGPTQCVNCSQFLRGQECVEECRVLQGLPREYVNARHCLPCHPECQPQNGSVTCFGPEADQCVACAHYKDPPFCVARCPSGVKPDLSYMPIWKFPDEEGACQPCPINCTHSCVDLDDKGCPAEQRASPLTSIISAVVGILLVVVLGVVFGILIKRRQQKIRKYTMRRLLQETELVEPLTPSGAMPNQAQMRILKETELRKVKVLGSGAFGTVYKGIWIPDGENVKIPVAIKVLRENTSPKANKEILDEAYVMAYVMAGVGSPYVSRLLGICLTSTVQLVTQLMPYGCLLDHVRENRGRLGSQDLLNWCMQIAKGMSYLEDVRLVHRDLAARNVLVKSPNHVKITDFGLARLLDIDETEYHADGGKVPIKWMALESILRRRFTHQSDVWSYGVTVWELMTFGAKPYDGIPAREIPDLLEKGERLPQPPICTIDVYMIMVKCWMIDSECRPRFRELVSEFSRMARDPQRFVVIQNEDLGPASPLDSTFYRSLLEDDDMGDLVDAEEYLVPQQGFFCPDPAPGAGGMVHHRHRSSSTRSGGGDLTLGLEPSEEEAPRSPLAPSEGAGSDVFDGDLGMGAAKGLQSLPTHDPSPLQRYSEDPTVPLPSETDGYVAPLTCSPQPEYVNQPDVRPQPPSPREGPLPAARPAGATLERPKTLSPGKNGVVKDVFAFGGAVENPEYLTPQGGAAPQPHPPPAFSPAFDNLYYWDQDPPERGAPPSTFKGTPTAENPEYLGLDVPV
One number for each entry, in nM.

{"compound": "Cc1cc(Nc2ncnc3cnc(N4CCN(C)[C@@H](C)C4)nc23)ccc1Oc1ccc2c(c1)ncn2C", "unit-label": "nM", "IC50": 14.7}
{"compound": "Cc1cc(Nc2ncnc3cnc(N4CC5(CCC5O)C4)nc23)ccc1Oc1ccc2c(c1)ncn2C (stereo not shown)", "unit-label": "nM", "IC50": 67.8}
{"compound": "Cc1c(Oc2ccn3ncnc3c2)ccc(Nc2ncnc3cnc(N4CC[C@@H](O)C4)nc23)c1F", "unit-label": "nM", "IC50": 1590}
{"compound": "Cc1cc(Nc2ncnc3cnc(N4CCCCC4)nc23)ccc1Oc1ccc2c(c1)ncn2C", "unit-label": "nM", "IC50": 76.3}
{"compound": "Cc1cc(Nc2ncnc3cnc(N4CCC4C(F)(F)F)nc23)ccc1Oc1ccc2c(c1)ncn2C (stereo not shown)", "unit-label": "nM", "IC50": 163}

Batch: IC50 for all items listed.
1. Cn1cnc2cc(Oc3ccc(Nc4ncnc5cnc(N6C7CCC6COC7)nc45)cc3Cl)ccc21
2. Cc1cc(Nc2ncnc3cnc(OCC4(F)CNC4)nc23)ccc1Oc1ccc2c(c1)ncn2C
3. Cc1cc(Nc2ncnc3cnc(NC4=NC(C)(C)CO4)nc23)ccc1Oc1ccn2ncnc2c1
4. Cc1cc(Nc2ncnc3cnc(N4CC[C@]5(CCO5)C4)nc23)ccc1Oc1ccc2c(c1)ncn2C
5. Cc1cc(Nc2ncnc3cnc(N4CC5(CCOC5)C4)nc23)ccc1Oc1ccc2c(c1)ncn2C

Output:
1. 89.1
2. 84.1
3. 1260
4. 14.9
5. 82.7

Hi! Can you tell me IC50 for each of these compounds?
1. Cc1cc(Nc2ncnc3cnc(N(C)C4COC4)nc23)ccc1Oc1ccn2ncnc2c1
2. N#CC[C@@H]1CCN(c2ncc3ncnc(Nc4ccc(Oc5ccn6ncnc6c5)c(Cl)c4)c3n2)C1
3. Cn1cnc2cc(Oc3ccc(Nc4ncnc5cnc(N6C[C@@H]7CC[C@H]6CO7)nc45)cc3Cl)ccc21
4. Cc1cc(Nc2ncnc3cnc(N4CCC[C@@]45CCOC5)nc23)ccc1Oc1ccc2c(c1)ncn2C (racemic)
5. Cc1cc(Nc2ncnc3cnc(N4CCN[C@H](C)C4)nc23)ccc1Oc1ccn2ncnc2c1
6. Cc1cc(Nc2ncnc3cnc(N4CC[C@@H](C#N)C4)nc23)ccc1Oc1ccc2c(c1)ncn2C

Output:
1. 339
2. 27.1
3. 123
4. 15.6
5. 147
6. 20.2
